Molecular target: PDE4 (homogenate of guinea pig lungs or hearts)
Construct: native enzyme activity in lung or heart homogenate; subtype not resolved; other PDE families may be present
Assay: [3H]-cAMP hydrolysis, two-step radioassay, Lineweaver-Burk
Conditions: cAMP substrate; 3 mM MgCl2; pH 7.4; 37°C; competitive; lung or heart homogenate
readout_name: Ki (µM)
Answers are plain numbers, in µM.

### Prompt Query: Ki; subject: COc1ccc([C@@H]2CC(=O)c3c(O)cc(O)cc3O2)cc1O [hesperetin, 5,7,3′-trihydroxy-4′-methoxyflavanone]
### Response 45.6
